# credit: the supplement of paper PMC10567573

The variants listed here are annotated with their protein stability index.
B1: TRIB1 (parent)
chain: SYVRSRKRLREEEAARLFKQIVSA

variants of: B1; experiment: protein stability index of a GFP-peptide fusion (GPS, HEK-293T) (PSI 1-6); higher = more stable; conditions: c terminus: a fixed tail appended;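 note: lentivirally expressed fusions sorted by FACS into six bins by GFP to DsRed ratio, PSI derived from sequencing read proportions per bin multiplied by bin number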
Please reply with the value in numeric form only.

mutationlabel=A24P numericreadout=2.63

Could you share which protein stability index value was measured for `S1F` ?
1.45

Could you share which protein stability index value was measured for `K7N` ?
2.15

Could you share which protein stability index value was measured for `L9F` ?
1.68
